Source of measurements: PubChem BioAssay AID588488

Each entry below carries its recorded inhibition.
# test_system: Protein-arginine deiminase type-2 (Homo sapiens) (UniProt Q9Y2J8)
# Sequence (Q9Y2J8 whole entry, looked up): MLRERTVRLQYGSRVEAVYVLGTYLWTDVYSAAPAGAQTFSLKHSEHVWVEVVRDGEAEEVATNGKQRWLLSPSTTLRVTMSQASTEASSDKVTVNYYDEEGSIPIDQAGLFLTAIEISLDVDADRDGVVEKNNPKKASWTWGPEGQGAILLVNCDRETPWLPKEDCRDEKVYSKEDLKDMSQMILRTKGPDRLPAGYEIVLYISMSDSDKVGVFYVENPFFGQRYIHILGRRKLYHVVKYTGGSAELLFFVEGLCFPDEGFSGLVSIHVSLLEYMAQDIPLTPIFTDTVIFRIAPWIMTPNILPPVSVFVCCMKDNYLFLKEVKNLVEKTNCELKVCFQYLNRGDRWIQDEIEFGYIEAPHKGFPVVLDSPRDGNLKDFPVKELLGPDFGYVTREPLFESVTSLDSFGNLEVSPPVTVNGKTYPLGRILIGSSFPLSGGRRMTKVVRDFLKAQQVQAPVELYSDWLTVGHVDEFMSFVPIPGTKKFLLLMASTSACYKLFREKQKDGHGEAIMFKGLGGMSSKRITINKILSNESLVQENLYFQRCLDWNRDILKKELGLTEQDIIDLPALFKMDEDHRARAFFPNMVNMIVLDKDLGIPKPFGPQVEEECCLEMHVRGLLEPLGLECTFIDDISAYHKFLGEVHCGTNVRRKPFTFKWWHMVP
# method_description: single-point PAD isozyme enzyme inhibition – biochemical, colorimetric, BAEE substrate, HTS hits, selectivity assay for PAD4 inhibitor project, late-stage follow-up (AID 588488)
# condition_notes: Recombinant PAD1-4, BAEE citrulline colorimetric absorbance; PAD2; at 10 µM; hits give high values
property_measured: inhibition (%)

molecule	unit_label	reported_value
O=C(NCC1CCCO1)c1cc2c([nH]c3ccccc32)c(-c2ccc(F)cc2)n1 (stereo unspecified)	%	20
O=c1cc(-c2ccc(Cl)cc2)[nH][nH]1	%	-6
Cc1ccc(C2CC(=O)Oc3cc(O)ccc32)cc1 (stereo unspecified)	%	17
N#CCCN(C(=O)Cn1nc(C(=O)O)c2ccccc2c1=O)c1ccccc1	%	10
CN(C)CCCNc1cn[nH]c(=O)c1Cl	%	20
Cc1cc(N(C)NC(=S)Nc2ccccc2)nc(C)n1	%	17
COc1ccc(-c2cc(=O)[nH][nH]2)cc1	%	26
CC(NC(=O)Nc1ccc(O)cc1)(C(F)(F)F)C(F)(F)F	%	-10
COc1ccc(C2C(C#N)=C(N)N(N(C)C)C3=C2C(=O)CCC3)cc1 (stereo unspecified)	%	7
CN(C)CCN(Cc1ccccc1)c1ccccn1	%	22
COC(=O)c1cc(C)nc(Sc2ccccc2N)n1	%	15
CCN(CC)S(=O)(=O)c1ccc(N=NC2=C(O)CCCC2=O)cc1	%	15
Cc1cc(-c2nnc(SCC(=O)Nc3ccc(F)c(F)c3)n2N)n[nH]1	%	6
Cn1c(=O)c2c(ncn2CC(=O)Nc2nc(-c3ccccc3Cl)cs2)n(C)c1=O	%	45
Cc1c(C(=O)N2CCCCC2)c(S(=O)(=O)N2CCN(c3ccc(Cl)cc3)CC2)c(C)n1C	%	4
N#CCCn1[nH]c(-c2ccccc2)cc1=O	%	39
